condition.parameters: buffer; pH 7.4; 200.0 µM
// solubility kinetic lookup, one value per entry

O=C(CCn1c(=O)oc2ccccc21)NCCC1=CCCCC1; > 47.2 µg/mL
Cc1cc(C)cc(NC(=O)C2CCN(C(=O)c3cccs3)CC2)c1; > 51.4 µg/mL
O=C1OC(c2ccc3c(c2)OCO3)=N/C1=C\c1ccc(C(=O)O)cc1; > 50.6 µg/mL

Q: Consider the compound Cc1ccc(C2=N/C(=C\c3cccc(F)c3)C(=O)O2)cc1 and give its recorded solubility kinetic.
A: < 0.6 µg/mL

Q: # return recorded solubility kinetic for input c1ccc(-c2nccc(-c3ccc4c(c3)OCO4)n2)cc1
A: < 0.3 µg/mL

Q: Query solubility kinetic for O=C(/C=C/c1cccc([N+](=O)[O-])c1)N1CC[C@@]2(O)CCCC[C@H]2C1
A: > 49.6 µg/mL

Q: Find the measured solubility kinetic of N#C/C(=C\c1ccccc1[N+](=O)[O-])C(=O)NCc1ccccc1 and report it.
A: > 46.1 µg/mL

Q: Give the measured solubility kinetic for Cc1ccc(-c2csc3ncn(C(C)C(=O)O)c(=O)c23)cc1 (centres undefined)
A: > 47.2 µg/mL

---

condition.parameters: buffer; pH 7.4; 200.0 µM
Recorded solubility kinetic values for a group of compounds are listed next.

CC(C)(C)OC(=O)N1CCC[C@@H]1CO; > 30.2 µg/mL
CSc1ccccc1NC(=O)COC(=O)c1cnc(C)cn1; > 47.6 µg/mL
CCCCN(C(C)=O)c1ccc(S(=O)(=O)NC2=NCCCCC2)cc1NC(C)=O; > 63.4 µg/mL

Q: In one line, give reported solubility kinetic of the entry CC(C)CCn1c(N2CCCC2)nc2c1c(=O)[nH]c(=O)n2C .
A: > 45.8 µg/mL

Q: Give a short answer stating reported solubility kinetic for CN1C(=O)/C(=C\c2cccc(OCc3ccccc3)c2)SC1=S .
A: < 0.7 µg/mL

Q: Give solubility kinetic for Cc1cc(C)c2cc(C(=O)N3CCC(Cc4ccccc4)CC3)[nH]c2c1
A: < 0.4 µg/mL

---

condition.parameters: buffer; pH 7.4; 200.0 µM
solubility kinetic values, listed per item

Answered cases to consult:
CCN1C(=O)N(CC)C2C1N(CO)C(=O)N2CO (stereo not given); > 38.7 µg/mL
COc1cc(Nc2ncnc(N)n2)cc(OC)c1; > 37.1 µg/mL
O[C@@H]1CN(Cc2ccccc2Cl)CC[C@H]1N1CCOCC1; 39.9 µg/mL
CSc1ccccc1NC(=O)C1=COCCO1; > 37.7 µg/mL

Next compound, solubility kinetic to be filled in.
Q: Using the record for CCCCS(=O)(=O)N1CCCC(C(=O)NCC2CCCO2)C1 (stereo not given) , state its measured solubility kinetic.
A: 41.1 µg/mL

---

condition.parameters: buffer; pH 7.4; 200.0 µM
Short version: solubility kinetic at least 20 µg/mL is Criterion met, less is Criterion not met.

Field: example entries. Status: answers known.
Cn1ncc(Cl)c1C(=O)NC1CCCC1; Criterion met
O=C(c1ccc(S(=O)(=O)N2CCCC2)cc1)N1CCCCCC1; Criterion met
O=C(O)CC(CC(=O)Nc1ccc(C(=O)O)cc1)c1ccccc1 (configuration not stated); Criterion met
Nc1nc(SCC(=O)Nc2cccc(F)c2)n[nH]1; Criterion met

Q: State whether the measured solubility kinetic reaches 20 µg/mL, counting equality as reaching it, for S=C(NCc1ccccc1)N1CCN(C2CCCCC2)CC1
A: Criterion met

Cited source: PubChem BioAssay AID1996
